Listed here are compounds together with their documented IC50.
Biological target: Human A2B receptor (Homo sapiens, UniProt P29275)
Sequence (P29275 1-332): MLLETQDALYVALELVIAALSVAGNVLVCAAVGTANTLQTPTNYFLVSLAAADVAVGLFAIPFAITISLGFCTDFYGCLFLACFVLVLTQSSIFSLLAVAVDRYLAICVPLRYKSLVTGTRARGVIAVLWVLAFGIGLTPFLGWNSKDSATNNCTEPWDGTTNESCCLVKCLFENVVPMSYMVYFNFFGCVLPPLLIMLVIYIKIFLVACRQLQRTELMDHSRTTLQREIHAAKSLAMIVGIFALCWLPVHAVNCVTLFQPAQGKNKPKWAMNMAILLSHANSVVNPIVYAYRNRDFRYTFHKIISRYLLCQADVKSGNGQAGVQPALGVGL
Structures can show the parent of a compound that is named as a salt.

# COMPOUND, IC50
data = [
    ("O=c1[nH]c2ccc(N3CCOCC3)cc2n2cc(-c3ccccc3)cc12 [Example 11, trifluoroacetic acid salt]", "> 10 µM"),
    ("O=C(O)C(F)(F)F.O=c1[nH]c2ccc(OCCN3CCOCC3)cc2n2cc(-c3ccccc3)cc12 [Example 17, trifluoroacetic acid salt]", "> 10 µM"),
]
